Assay Comment: Cytotoxicity against human U87 cells assessed as growth inhibition after 72 hrs by SRB assay
Assay type: functional, cell-based, U-87MG ATCC
Test Settings: U-87 MG
Quantity: IC50 (µM)
Give your result in µM as a bare value.

Task: For the molecule shown here, Cn1nnc2c(C(N)=O)ncn2c1=O [TEMOZOLOMIDE] , give the reported IC50.
Result: 19.4
